target: Histone-lysine N-methyltransferase EHMT2 (Homo sapiens) (UniProt Q96KQ7); assay: qHTS Assay for Inhibitors of Histone Lysine Methyltransferase G9a; conditions: G9a H3K9 monomethylation, AlphaScreen, 2 h; series mostly up to 59 µM; note: nearly all actives have a fitted effect of over 75% in size; note: potency is the fitted concentration of half-maximal effect
Sequence (Q96KQ7 913-1193 limits assumed): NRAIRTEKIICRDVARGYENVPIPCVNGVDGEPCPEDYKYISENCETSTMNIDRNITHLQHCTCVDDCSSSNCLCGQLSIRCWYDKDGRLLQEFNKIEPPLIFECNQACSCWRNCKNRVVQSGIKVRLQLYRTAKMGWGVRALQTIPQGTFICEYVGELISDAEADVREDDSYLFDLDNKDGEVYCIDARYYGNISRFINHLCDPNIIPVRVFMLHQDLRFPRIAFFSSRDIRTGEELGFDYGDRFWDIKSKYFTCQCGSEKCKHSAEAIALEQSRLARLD
The campaign covered roughly 350,000 compounds. About 31,000 (8.9%) were called active. Roughly 15% stayed inconclusive and do not appear here. For the sample, actives were picked, then their nearest neighbours and some compounds at random.
TEST_READOUT: Potency

Worked examples, 4 molecules total:
[
  {
    "MOLECULE": "O=C(O)CCCn1c(=O)c2cccn2c2ccc(F)cc21",
    "Potency": "inactive"
  },
  {
    "MOLECULE": "CN1CCN(CC#CCC2(O)c3ccccc3-c3ccccc32)CC1",
    "Potency": "35.5 µM (active)"
  },
  {
    "MOLECULE": "CC(=O)c1nc2ccccc2n1Cc1ccccc1",
    "Potency": "inactive"
  },
  {
    "MOLECULE": "COC(=O)c1ccc(CNC(=O)c2ccc3oc(C(C)C)nc3c2)cc1",
    "Potency": "inactive"
  }
]

Param readout = Potency; param system = Histone-lysine N-methyltransferase EHMT2 (Homo sapiens) (UniProt Q96KQ7); param query = O=[N+]([O-])c1ccc(N2CCN(CC(O)COc3ccccc3)CC2)cc1 (stereo not drawn) ; response: value inactive

Param readout = Potency; param system = Histone-lysine N-methyltransferase EHMT2 (Homo sapiens) (UniProt Q96KQ7); param query = COc1ccc(OC)c(-n2cc3c(=O)n(C)c(=O)n(C)c3c2)c1 ; response: value 50.1 µM (active)

Param readout = Potency; param system = Histone-lysine N-methyltransferase EHMT2 (Homo sapiens) (UniProt Q96KQ7); param query = CCOc1ccccc1N(C)C(=O)c1cc2c(s1)-c1ccccc1OC2 ; response: value inactive

Param readout = Potency; param system = Histone-lysine N-methyltransferase EHMT2 (Homo sapiens) (UniProt Q96KQ7); param query = COc1cc(Cl)c(C)cc1NC(=O)CCc1nc2cccnc2n1Cc1cccs1 ; response: value inactive

Param readout = Potency; param system = Histone-lysine N-methyltransferase EHMT2 (Homo sapiens) (UniProt Q96KQ7); param query = COCCCn1c(CCC(=O)O)ccc1-c1ccc(F)cc1 ; response: value 11.2 µM (active)

Param readout = Potency; param system = Histone-lysine N-methyltransferase EHMT2 (Homo sapiens) (UniProt Q96KQ7); param query = COc1ccc(OCCCn2c(C3CC(=O)N(c4ccc(F)cc4)C3)nc3ccccc32)cc1 (stereo not drawn) ; response: value inactive

Param readout = Potency; param system = Histone-lysine N-methyltransferase EHMT2 (Homo sapiens) (UniProt Q96KQ7); param query = O=C(NC1CCCCCCC1)c1cccs1 ; response: value inactive

Param readout = Potency; param system = Histone-lysine N-methyltransferase EHMT2 (Homo sapiens) (UniProt Q96KQ7); param query = CCOc1ccc(CCNC(=O)c2ccc3c(c2)sc2nc(-c4ccc(F)cc4)cn23)cc1OCC ; response: value inactive
